assayed target: SERCA2a (Cavia porcellus, UniProt A0A286XFU8)
Construct: from tissue; host or cells: guinea pig left ventricle, SR-enriched microsomes
Sequence (A0A286XFU8 entry or part of it): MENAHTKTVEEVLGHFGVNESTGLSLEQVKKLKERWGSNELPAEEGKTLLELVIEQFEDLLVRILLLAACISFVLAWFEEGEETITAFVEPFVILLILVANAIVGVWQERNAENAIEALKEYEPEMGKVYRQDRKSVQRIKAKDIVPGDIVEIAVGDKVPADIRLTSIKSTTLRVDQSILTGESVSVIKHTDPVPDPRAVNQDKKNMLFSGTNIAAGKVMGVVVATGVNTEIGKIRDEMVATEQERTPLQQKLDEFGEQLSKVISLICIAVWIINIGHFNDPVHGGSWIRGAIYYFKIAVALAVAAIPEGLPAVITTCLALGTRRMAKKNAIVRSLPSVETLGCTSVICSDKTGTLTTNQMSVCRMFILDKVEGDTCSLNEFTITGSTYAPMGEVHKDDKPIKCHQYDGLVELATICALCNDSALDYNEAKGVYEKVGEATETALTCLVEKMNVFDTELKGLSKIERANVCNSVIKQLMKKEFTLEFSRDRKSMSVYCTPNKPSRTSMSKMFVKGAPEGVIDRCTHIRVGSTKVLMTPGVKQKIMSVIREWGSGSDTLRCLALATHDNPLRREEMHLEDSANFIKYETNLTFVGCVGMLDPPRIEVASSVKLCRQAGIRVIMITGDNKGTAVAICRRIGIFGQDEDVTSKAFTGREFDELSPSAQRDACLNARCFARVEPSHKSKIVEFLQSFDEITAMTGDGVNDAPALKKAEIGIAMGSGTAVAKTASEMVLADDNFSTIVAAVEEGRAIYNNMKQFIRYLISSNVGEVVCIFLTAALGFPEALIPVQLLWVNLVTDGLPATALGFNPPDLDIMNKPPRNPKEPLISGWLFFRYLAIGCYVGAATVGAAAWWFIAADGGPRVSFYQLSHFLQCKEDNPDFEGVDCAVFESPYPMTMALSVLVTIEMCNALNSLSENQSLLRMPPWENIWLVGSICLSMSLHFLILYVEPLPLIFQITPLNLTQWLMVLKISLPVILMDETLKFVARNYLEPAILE
test summary: SERCA2a ATPase activity, Ca2+ dependency in cardiac SR microsomes from healthy guinea pigs
Assay type: biochemical, guinea pig
condition details: 10 and 100 nM, healthy guinea pig SR preparations
Description: SERCA2a ATPase activity was assessed in SR preparations from healthy guinea pig hearts. Ca^2+ dependency of ATPase activity was measured, and kinetic parameters (KdCa and Vmax) were estimated at compound concentrations of 10 and 100 nM. […] SERCA2a ATPase activity was measured as the rate of 32P-ATP release at multiple Ca2+ concentrations (100-2000 nM) in the absence and presence of tested compounds, as previously described5. […]
value type: SERCA2a–Ca2+ affinity (KdCa) modulation (words)

- molecule: "C[C@]12CC/C(=C/CCC(=O)O)C[C@@H]1[C@@H](O)C[C@@H]1[C@@H]2CC[C@]2(C)C(=O)CC[C@@H]12 [Compound 2]"
  reading: "inactive"
- molecule: "C[C@]12CC/C(=C/CCC(=O)O)C[C@@H]1[C@H](O)C[C@@H]1[C@@H]2CC[C@]2(C)C(=O)CC[C@@H]12 [Compound 4]"
  reading: "inactive"
